System: HLA-B15
assay-method-text: REVEAL binding assay
test-settings: score as percentage of the signal generated by the positive control peptide
Where no end group is shown, it is not given here. [ ]: non-standard residue; d: D form. Cit = NC(=O)NCCC[C@H](N)C(=O)O; Nle = CCCC[C@H](N)C(=O)O
Below is a list of entries, each paired with its recorded REVEAL binding score, HLA-type B15 value.

substance: TGNLPGCSF
REVEAL binding score, HLA-type B15: 45.07%
--
substance: IVGGVYLLP
REVEAL binding score, HLA-type B15: 15.00%
--
substance: LGKVIDTLT
REVEAL binding score, HLA-type B15: 7.14%
--
substance: DLMGYIPLV
REVEAL binding score, HLA-type B15: 7.67%
--
substance: GGQIVGGVY
REVEAL binding score, HLA-type B15: 110.34%
--
substance: L[Nle]GYIPLIG
REVEAL binding score, HLA-type B15: 14.60%
--
substance: QIIGGNYLI
REVEAL binding score, HLA-type B15: 29.59%
--
substance: RVIAHGLRL
REVEAL binding score, HLA-type B15: 106.77%
--
substance: YVTGNIPGS
REVEAL binding score, HLA-type B15: 6.16%
--
substance: GNIPGSTYS
REVEAL binding score, HLA-type B15: 4.80%
--
substance: P[Cit]IGVRAT[Cit]
REVEAL binding score, HLA-type B15: 12.64%
--
substance: RNLGKVIDT
REVEAL binding score, HLA-type B15: 11.79%
--
substance: IIGGNYLIP
REVEAL binding score, HLA-type B15: 19.93%
--
substance: EL[Nle]GYIPLI
REVEAL binding score, HLA-type B15: 8.91%
--
substance: GQIIGGNYL
REVEAL binding score, HLA-type B15: 173.66%

From: patent US9550811B2
